Catalogue of pIC50 readings, one per entry.
- study_target: UniProt:P48736
- Sequence (P48736 whole entry, canonical isoform): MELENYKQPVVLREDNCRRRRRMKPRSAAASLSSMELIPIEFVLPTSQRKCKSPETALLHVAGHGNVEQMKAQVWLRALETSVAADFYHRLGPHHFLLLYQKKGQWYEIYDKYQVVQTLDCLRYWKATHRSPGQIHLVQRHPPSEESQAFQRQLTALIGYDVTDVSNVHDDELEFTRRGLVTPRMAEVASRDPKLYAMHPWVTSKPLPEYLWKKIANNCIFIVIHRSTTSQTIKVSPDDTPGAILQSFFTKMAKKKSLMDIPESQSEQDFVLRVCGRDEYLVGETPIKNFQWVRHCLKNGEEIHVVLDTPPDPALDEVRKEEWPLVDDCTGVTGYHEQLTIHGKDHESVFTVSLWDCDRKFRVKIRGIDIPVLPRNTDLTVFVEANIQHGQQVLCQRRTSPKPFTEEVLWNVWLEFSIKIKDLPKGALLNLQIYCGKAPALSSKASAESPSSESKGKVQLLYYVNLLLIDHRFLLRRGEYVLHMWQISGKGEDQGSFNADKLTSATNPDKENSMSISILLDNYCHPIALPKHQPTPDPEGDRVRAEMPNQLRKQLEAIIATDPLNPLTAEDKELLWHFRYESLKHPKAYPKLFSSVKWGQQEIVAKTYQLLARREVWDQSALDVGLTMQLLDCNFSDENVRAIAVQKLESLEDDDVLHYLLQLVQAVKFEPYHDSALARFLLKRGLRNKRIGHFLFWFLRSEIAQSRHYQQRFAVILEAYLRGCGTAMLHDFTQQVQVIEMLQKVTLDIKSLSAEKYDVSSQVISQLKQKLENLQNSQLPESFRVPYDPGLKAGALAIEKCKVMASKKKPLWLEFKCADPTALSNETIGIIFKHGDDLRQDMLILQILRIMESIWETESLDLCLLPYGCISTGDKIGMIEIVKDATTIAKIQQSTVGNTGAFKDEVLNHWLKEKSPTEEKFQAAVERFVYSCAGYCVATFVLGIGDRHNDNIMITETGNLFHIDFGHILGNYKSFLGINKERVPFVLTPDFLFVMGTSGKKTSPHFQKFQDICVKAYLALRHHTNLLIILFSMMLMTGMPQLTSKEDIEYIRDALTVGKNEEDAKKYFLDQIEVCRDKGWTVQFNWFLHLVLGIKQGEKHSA
- experiment_description: TR-FRET enzymatic activity assay against PI3K isoforms
- test_conditions: 2×Km ATP, 30 minutes at 25° C.
On this scale, pIC50 is minus log10 of a concentration expressed in M (mol/L).

Examples with answers:
C[C@H](Nc1nc(N)nc(N)c1C#N)c1nc2cccc(Cl)c2c(=O)n1CCCN [Compound 42]: 5.85
C[C@H](Nc1nc(N)nc(N)c1C#N)c1nc2cccc(Cl)c2c(=O)n1CCCNc1ncccn1 [Compound 4]: 6.18
Cc1nc(N)nc(N[C@H](c2nc3cccc(Cl)c3c(=O)n2CCCN)C2CC2)c1C#N [Compound 49]: 6.12

Query :: Provide pIC50 value for the following compound: NC(=O)CCn1c([C@@H](Nc2nc(N)nc(N)c2Cl)C2CC2)nc2cccc(Cl)c2c1=O [Compound 68]
Result :: 6.00
